tested on: 292921-168-R-J2-PDC KRAS tumor spheroid viability; assay: Anticancer human tumor 292921-168-R-J2-PDC patient-derived pancreatic carcinoma cell line growth inhibition [KRAS2]; details: second compound 0.1 µM; first compound 3.16 µM; hits give low values; spheroids with HUVEC and MSC;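 further: drug exposure lasted seven days after spheroids formed for three days; percent of DMSO vehicle control viability which is 100%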
Listing: viability, T/C of selected compounds
Write down the numeric answer in % and omit the unit.

compound	viability, T/C [%]
O=C(c1cc(Cc2n[nH]c(=O)c3ccccc23)ccc1F)N1CCN(C(=O)C2CC2)CC1 + C=CC(=O)N1CCN(c2nc(OCC3CCCN3C)nc3c2CCN(c2cccc4cccc(C)c24)C3)CC1CC#N	68.5
CC1OCC2(CCN(c3cnc(Sc4ccnc(N)c4Cl)c(N)n3)CC2)C1N (stereo not given) + CNCc1ccccc1-c1csc(C(C)Nc2nc(C)nc3cc(OC)c(OC)cc23)c1	34.6
CC(=O)OC12COC1CC(O)C1(C)C(=O)C(O)C3=C(C)C(OC(=O)C(O)C(NC(=O)OC(C)(C)C)c4ccccc4)CC(O)(C(OC(=O)c4ccccc4)C21)C3(C)C (stereo not given) + CNCc1ccccc1-c1csc(C(C)Nc2nc(C)nc3cc(OC)c(OC)cc23)c1	18.1
CC1(C)CCC(CN2CCN(c3ccc(C(=O)NS(=O)(=O)c4ccc(NCC5CCOCC5)c([N+](=O)[O-])c4)c(Oc4cnc5[nH]ccc5c4)c3)CC2)=C(c2ccc(Cl)cc2)C1 + C=CC(=O)N1CCN(c2nc(OCC3CCCN3C)nc3c2CCN(c2cccc4cccc(C)c24)C3)CC1CC#N	24.7

We next turn to a different compound, shown below.
Task: Entry COc1cc(Nc2ncc3c(n2)-c2ccc(Cl)cc2C(c2c(F)cccc2OC)=NC3)ccc1C(=O)O + CC1OCC2(CCN(c3cnc(Sc4ccnc(N)c4Cl)c(N)n3)CC2)C1N has what viability, T/C?
Result: 17.3
